- Test system: RPMI-8226
- procedure details: NCI tumour cell line growth inhibition, 48 h
Calls of active or inactive are those of the source. No stated cut-off is given here; in the data, active = GI50 up to about 1.1 µM and inactive = higher. Starred links: 1 amine or outer side, 2 acyl side, 3 side chain; linkers in the order of their positions; H or OH if unused. Positions of bridges follow the written chain, without caps; N, C: chain ends. Non-standard residues stand in square brackets, D forms with d. Residues, ends and D or L forms follow the SMILES beside them. Chains are numbered I, II in the order given. Actinocin(9to1) = Cc1c2oc3c(C)ccc(C(=O)[*:1])c3nc-2c(C(=O)[*:2])c(N)c1=O; NMeT = CN[CH](C(=O)O)[CH](C)O; Sar = CNCC(=O)O
Below is a list of entries, each paired with its recorded GI50 value.

Please review the following examples before continuing.
Cc1c2oc3c(C)ccc(C(=O)NC4C(=O)NC(C(C)C)C(=O)N5CCCC5C(=O)N(C)CC(=O)N(C)C(C(C)O)C(=O)OC4C)c3nc-2c(C(=O)NC2C(=O)NC(C(C)C)C(=O)N3CCCC3C(=O)N(C)CC(=O)N(C)C(C(C)O)C(=O)OC2C)c(N)c1=O (configuration not stated) (I: TVP[Sar][NMeT] / II: TVP[Sar][NMeT]; ester I:1-I:C, II:1-II:C; linker I:N-II:N via Actinocin(9to1); configuration not given here); 0.773 µM (active)
COc1ccc(CNc2nc3cc(C(F)(F)F)ccc3nc2C(=O)O)cc1OC; 28.1 µM (inactive)
O=S(=O)(CCCCl)SCCCCl; 21.9 µM (inactive)
Cc1ccc(S(=O)(=O)NC(=O)Nc2c(S(N)(=O)=O)cc(S(N)(=O)=O)c(Cl)c2Cl)cc1; > 100 µM (inactive)
CCN(CC)CCCC(C)Nc1ccnc2cc3ccccc3cc12 (configuration not stated); 13.5 µM (inactive)

**Q:** Fill in: GI50 of O=C(Nc1nnc(-c2ccccc2)o1)C(SC(=S)N1CCCCC1)c1ccccc1 (configuration not stated) is ___
**A:** 16.2 µM (inactive)

**Q:** Try this compound too: C(=C(c1ccc(OC2CCCCO2)cc1)c1ccc(OC2CCCCO2)cc1)c1ccccc1 (configuration not stated)
**A:** 0.294 µM (active)

###

- Test system: BT-549
- procedure details: NCI tumour cell line growth inhibition, 48 h
Calls of active or inactive are those of the source. Rule as the data show it: active = GI50 up to about 1.1 µM and inactive = higher. Peptide text beside a SMILES is read from it. * marks the point of attachment. OSu = O=C1CCC(=O)N1O*
Below is a list of entries, each paired with its recorded GI50 value.

Please review the following examples before continuing.
CCOC(=O)CCCn1cc(C(=O)OC)nn1; > 100 µM (inactive)
NCCCCC(NC(=O)C(N)Cc1ccc(O)cc1)C(=O)NC(CCCCN)C(=O)NC(CCCCN)C(=O)ON1C(=O)CCC1=O (stereo not given) (H-YKKK-OSu; configuration not given here); > 100 µM (inactive)
CNNC1=NS(=O)(=O)c2cc(C#N)c(Cl)cc2S1; > 10 µM (inactive)
COC(=O)C(=O)C(C(=O)OC)C(=O)C(=O)Nc1c(Cl)cc([N+](=O)[O-])cc1Cl (stereo not given); > 100 µM (inactive)

**Q:** Kindly state the measured GI50 obtained for O=C(Nc1nc(C23CC4CC(CC(C4)C2)C3)cs1)c1cc2c(ccc3ccccc32)oc1=O with BT-549.
**A:** > 100 µM (inactive)

**Q:** Try this compound too: O[C@H]1[C@H]2c3cc4c(cc3CN3CCC(=C[C@@H]1O)[C@H]23)OCO4
**A:** 1.66 µM (inactive)

**Q:** Try this compound too: NCCCn1c(Cl)nc2ccccc21
**A:** > 100 µM (inactive)

**Q:** Try this compound too: Nn1c(-c2ccccc2)n[nH]c1=O
**A:** > 100 µM (inactive)

**Q:** Try this compound too: COc1cc2ccccc2oc1=O
**A:** 19.8 µM (inactive)

**Q:** Try this compound too: CCC1(CCSC(=N)N)C(=O)NC(=O)NC1=O
**A:** > 100 µM (inactive)

###

- System: SK-MEL-28
- procedure details: NCI tumour cell line growth inhibition, 48 h
Activity calls are given as the source filed them. Cut-off read from the data, not from the text of the source: active = GI50 up to about 1.1 µM and inactive = higher.
Respond only with the outcome that fits, drawn from t (active), f (inactive)

COc1cc([C@@H]2c3cc4c(cc3C[C@H]3COC(=O)[C@@H]32)OCO4)cc2c1OCO2 [AUSTROBAILIGNAN 1]; t
Cc1nc2c(nc1C)C(=O)c1cc(O)ccc1C2=O; f
NC(CSCc1ccccc1)C(=O)O (stereo unspecified); f
O=C(OCc1ccccc1)c1nc2ccccc2n1S(=O)(=O)c1ccccc1; f
N=C(N)NS(=O)(=O)c1ccc(NNc2c3ccccc3nc3c(C(=O)Nc4ccc(S(=O)(=O)Nc5ncccn5)cc4)cccc23)cc1; f
CC1(C)OC2COC(c3n[nH]c4c(=O)[nH]c(=O)[nH]c34)C2O1 (stereo unspecified); f
COC(=O)C1=C(C(=O)OC)C(C(=O)OC)C(C(=O)OC)=C1C(=O)OC; f
O=c1[nH]c(Br)nc2c(Br)c[nH]c12; f
CCCCC(=O)NC1(c2cc3ccccc3s2)CCCCC1; f
COC1=CC(=O)C2C(C1=O)C(c1ccc(OC)c(OC)c1)[C@H]2C (stereo partly specified); f

**Q:** Just curious, what result did CNc1cccc2c1C(C)C[C@]1(C)C(=O)Nc3ccccc3[C@H]21 (stereo partly specified) get here?
**A:** f

**Q:** Try this molecule too: CCCCCCCCCCCC[N+]12CC[N+](CCN)(CC1)CC2
**A:** f

**Q:** Try this molecule too: COc1cccc(N2C(=O)C3c4[nH]c5ccccc5c4C4c5ccccc5CCC4C3C2=O)c1 (stereo unspecified)
**A:** f

###

- System: 786-0
- procedure details: NCI tumour cell line growth inhibition, 48 h
Calls of active or inactive are those of the source. No stated cut-off is given here; in the data, active = GI50 up to about 1.1 µM and inactive = higher. Where a SMILES comes first, the peptide text is derived from it. [ ]: non-standard residue; d: D form. The star is where a group is joined. Bn2Val = CC(C)[C@@H](C(=O)*)N(Cc1ccccc1)Cc1ccccc1; NHPiperonyl = c1cc2c(cc1CN*)OCO2; NMeV = CN[C@H](C(=O)O)C(C)C; dNMeA = CN[C@H](C)C(=O)O
reported property: GI50

COC(=O)C1=C(C(=O)OC)C(C(=O)OC)C(C(=O)OC)=C1C(=O)OC; > 100 µM (inactive)
CC(C)[C@H](NC(=O)[C@H](C(C)C)N(Cc1ccccc1)Cc1ccccc1)C(=O)N(C)[C@H](C(=O)N1CCC[C@H]1C(=O)N(C)[C@H](C)C(=O)NCc1ccc2c(c1)OCO2)C(C)C (Bn2Val-V[NMeV]P[dNMeA]-NHPiperonyl); 13.6 µM (inactive)
NC(=O)c1nnc2ccc(F)cc2c1N; > 100 µM (inactive)
N=c1oc2ccccc2cc1-c1nc2ccccc2[nH]1; 15.4 µM (inactive)
Nc1cccc2nsnc12; > 100 µM (inactive)
COC(=O)c1cc(O)ccc1O [METHYL 2,5-DIHYDROXYBENZOATE]; > 100 µM (inactive)
O=[N+]([O-])/C=C/c1cn(CCCCCCCCCCCCn2cc(/C=C/[N+](=O)[O-])c3ccccc32)c2ccccc12; > 100 µM (inactive)
CC1=C(C(=O)OCc2ccncc2)C(C2=C(C)SCCS2)C(C(=O)OCc2ccncc2)=C(C)N1; 28.6 µM (inactive)

Next:
**Q:** Kindly state the measured GI50 obtained for COC(=O)c1oc([N+](=O)[O-])c(Cl)c1Cl with 786-0.
**A:** 4.14 µM (inactive)

###

- Test system: OVCAR-8
- procedure details: NCI tumour cell line growth inhibition, 48 h
Calls of active or inactive are those of the source. No stated cut-off is given here; in the data, active = GI50 up to about 1.1 µM and inactive = higher.
Respond only with the outcome that fits, drawn from active, inactive

Reference set (8 entries):
S=C(c1c[nH]c2ccccc12)N1CCN(Cc2ccccc2)CC1; inactive
COc1c(O)c2c(c3cc(C(=O)N4CCc5c4c(O)c(OC)c4[nH]c(C(=O)N6CC7CC78C6=CC(=O)c6[nH]cc(C)c68)cc54)[nH]c13)CCN2C(N)=O (centres undefined) [CC-1065]; active
CNCc1cc(OC)ccc1-c1ccc(OC)c(OC)c1OC; inactive
CCCNCC(=O)O[C@]1(CC)C(=O)OCc2c1cc1n(c2=O)Cc2cc3ccccc3nc2-1; active
CSc1c(C(=O)Nc2ccc(Cl)cc2)c(N)nn1-c1ccccc1; inactive
CCCCNC(=S)Nn1c(-c2ccccc2)nc2ccccc2c1=O; inactive
NC1(P(=O)(O)O)CCCCC1; inactive
COC(=O)c1cc(O)ccc1O [METHYL 2,5-DIHYDROXYBENZOATE]; inactive

Attention now turns to another entry.
**Q:** Just curious, what result did O=C(NCCCCCCNC(=O)n1cc(F)c(=O)[nH]c1=O)NCCCOCCOCCOCCOCCOCCOCCOCCOCCOCCOCCOCCOCCOCCOCCOCCOCCOCCOCCOCCOCCOCCCNC(=O)C(O)C(O)C(OC1OC(CO)C(O)C(O)C1O)C(O)CO (centres undefined) get here?
**A:** inactive
